Target: cloned human or rodent CNS receptors, channels, and transporters (PDSP panel) (Homo sapiens, UniProt P08908)
Construct: expressed in transfected cells
Sequence (P08908 whole entry): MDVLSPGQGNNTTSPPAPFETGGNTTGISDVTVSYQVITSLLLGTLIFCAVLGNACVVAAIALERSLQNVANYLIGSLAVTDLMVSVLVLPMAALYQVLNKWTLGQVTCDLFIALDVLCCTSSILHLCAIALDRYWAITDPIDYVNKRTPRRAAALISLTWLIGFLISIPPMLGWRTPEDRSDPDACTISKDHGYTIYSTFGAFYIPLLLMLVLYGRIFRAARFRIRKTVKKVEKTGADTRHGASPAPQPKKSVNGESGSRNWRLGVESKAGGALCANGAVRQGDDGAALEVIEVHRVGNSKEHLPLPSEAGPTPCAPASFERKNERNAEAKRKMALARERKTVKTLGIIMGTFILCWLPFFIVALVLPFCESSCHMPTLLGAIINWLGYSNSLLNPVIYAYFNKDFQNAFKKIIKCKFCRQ
Assay: PDSP GPCR panel primary binding assays at 10 μM
Settings: Receptor 5-HT1A; primary assay, 10 μM
Measured Inhibition 2 by item
Numbers only; they are read as %.

Consider the worked cases shown below.
Can you share its Inhibition 2? I mean this molecule: CCCCNc1ncc2c(-c3ccc(CN4CCN(C)CC4)cc3)cn([C@H]3CC[C@H](O)CC3)c2n1 [UNC2025C, UNC2025]
-18.53

Query c1cn2cc(-c3ccc4cn[nH]c4c3)nc(Nc3ccc(N4CCOCC4)cc3)c2n1 [UNC10302678A, Entospletinib (GS-9973)] next
-0.95

Moving on to the next molecule: Cl.NC(=O)c1cnc(N[C@@H]2CCCC[C@@H]2N)nc1Nc1cccc(-n2nccn2)c1 [UNC10302682A, P505-15 (PRT06207 HCl)]
0.09

More entries:
Recorded Inhibition 2 of O=c1oc2ccccc2cc1-c1cn2cc(Cc3ccc(F)cc3)sc2n1 [UNC10302680A, iMDK] , please.
4.57

---

Test system: cloned human or rodent CNS receptors, channels, and transporters (PDSP panel)
Assay: PDSP GPCR panel primary binding assays at 10 μM
Settings: Alpha2A; primary assay, replicate 2
quantity: Inhibition 2 (%)
Write down the numeric answer in % and omit the unit.

Could you share which Inhibition 2 value was measured for CCC(=O)N1CCC(NC(=O)Nc2ccc(OC(F)(F)F)cc2)CC1 [UNC10302681A, TPPU] ?
-8.16

New cases:
Quick one: Inhibition 2 of CNc1nc(C)nc(N[C@H]2CCC[C@@H](C(=O)NCc3ccc(C#N)cc3C(F)(F)F)C2)n1 [UNC10302679A, GSK2256294A] ?
-9.38

Next: O=C(NC1CC1)C(=O)C(Cc1ccccc1)NC(=O)[C@H]1CCC(=O)N1Cc1ccccc1 (stereo partly shown) [UNC10302676A, ABT-957 (Alicapistat)]
2.44

Repeat with CC(=O)N1CCC(NC(=O)NC23CC4CC(CC(C4)C2)C3)CC1 [UNC10302683A, AR9281]
1.33

---

Molecular target: cloned human or rodent CNS receptors, channels, and transporters (PDSP panel) (Homo sapiens, UniProt P28221)
Construct: expressed in transfected cells
Sequence (P28221 whole entry): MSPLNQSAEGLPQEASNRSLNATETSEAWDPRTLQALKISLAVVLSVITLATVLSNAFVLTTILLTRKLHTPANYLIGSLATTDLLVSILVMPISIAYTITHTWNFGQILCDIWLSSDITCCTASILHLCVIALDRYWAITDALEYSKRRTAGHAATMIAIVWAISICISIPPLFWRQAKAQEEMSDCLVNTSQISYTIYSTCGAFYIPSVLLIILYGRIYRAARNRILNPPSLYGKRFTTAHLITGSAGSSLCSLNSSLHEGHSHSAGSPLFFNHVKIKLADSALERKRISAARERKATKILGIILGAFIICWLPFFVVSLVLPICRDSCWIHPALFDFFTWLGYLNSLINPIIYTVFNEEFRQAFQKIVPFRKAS
Assay: PDSP GPCR panel primary binding assays at 10 μM
Details: Receptor 5-HT1D; primary assay, 10 μM
Protocol: GPCR panel: Screening against the receptors within the PDSP panel offers an assessment of off-target pharmacological activity at cloned human or rodent CNS receptors, channels, and transporters that could confound CNS-related phenotypes. A total of 46–47 primary binding assays were run in quadruplicate on these compounds at 10 μM, with follow-up secondary binding assays in 11-point dose-response in triplicate for select compounds versus select receptors. […]
quantity: Inhibition 1 (%)
Return type: number; implicit unit %.

Please look up its Inhibition 1: CCCCNc1ncc2c(-c3ccc(CN4CCN(C)CC4)cc3)cn([C@H]3CC[C@H](O)CC3)c2n1 [UNC2025C, UNC2025]
51.95

Next molecule: c1cn2cc(-c3ccc4cn[nH]c4c3)nc(Nc3ccc(N4CCOCC4)cc3)c2n1 [UNC10302678A, Entospletinib (GS-9973)]
30.71

What do we get for O=c1oc2ccccc2cc1-c1cn2cc(Cc3ccc(F)cc3)sc2n1 [UNC10302680A, iMDK] ?
-3.85

Here's the next entry for you.
So what does the record say about Inhibition 1 for Cl.NC(=O)c1cnc(N[C@@H]2CCCC[C@@H]2N)nc1Nc1cccc(-n2nccn2)c1 [UNC10302682A, P505-15 (PRT06207 HCl)] ?
74.44
